Subject Of Test: D-3 receptors (Homo sapiens, UniProt P35462)
Sequence (P35462 whole entry): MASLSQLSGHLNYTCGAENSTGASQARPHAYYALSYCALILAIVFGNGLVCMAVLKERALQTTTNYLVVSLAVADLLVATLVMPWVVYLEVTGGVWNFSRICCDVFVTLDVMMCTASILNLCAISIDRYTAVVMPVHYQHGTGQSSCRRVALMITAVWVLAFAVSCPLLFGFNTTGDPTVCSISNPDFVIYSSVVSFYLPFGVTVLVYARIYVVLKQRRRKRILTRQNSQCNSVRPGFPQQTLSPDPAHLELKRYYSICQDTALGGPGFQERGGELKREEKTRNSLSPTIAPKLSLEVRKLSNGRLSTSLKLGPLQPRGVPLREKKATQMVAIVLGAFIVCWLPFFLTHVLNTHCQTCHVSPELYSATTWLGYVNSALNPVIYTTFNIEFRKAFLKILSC
Experiment: Radioligand-receptor binding assay, human recombinant D3 receptors, [3H]Spiperone
pKi: −log10 of the molar value.

>  <Compound>
CCOc1ccccc1OCCN[C@H](C)Cc1ccc(O)c(S(N)(=O)=O)c1 [Formula I]

>  <pKi>
8.75

$$$$
>  <Compound>
CCOc1ccccc1OCCNC(C)Cc1ccc(OC)c(S(N)(=O)=O)c1 (single isomer, unassigned; (-)) [Tamsulosin, reference compound]

>  <pKi>
9.55

$$$$

* * *

Subject Of Test: human α1D-adrenoceptors (Homo sapiens, UniProt P25100)
Sequence (P25100 whole entry): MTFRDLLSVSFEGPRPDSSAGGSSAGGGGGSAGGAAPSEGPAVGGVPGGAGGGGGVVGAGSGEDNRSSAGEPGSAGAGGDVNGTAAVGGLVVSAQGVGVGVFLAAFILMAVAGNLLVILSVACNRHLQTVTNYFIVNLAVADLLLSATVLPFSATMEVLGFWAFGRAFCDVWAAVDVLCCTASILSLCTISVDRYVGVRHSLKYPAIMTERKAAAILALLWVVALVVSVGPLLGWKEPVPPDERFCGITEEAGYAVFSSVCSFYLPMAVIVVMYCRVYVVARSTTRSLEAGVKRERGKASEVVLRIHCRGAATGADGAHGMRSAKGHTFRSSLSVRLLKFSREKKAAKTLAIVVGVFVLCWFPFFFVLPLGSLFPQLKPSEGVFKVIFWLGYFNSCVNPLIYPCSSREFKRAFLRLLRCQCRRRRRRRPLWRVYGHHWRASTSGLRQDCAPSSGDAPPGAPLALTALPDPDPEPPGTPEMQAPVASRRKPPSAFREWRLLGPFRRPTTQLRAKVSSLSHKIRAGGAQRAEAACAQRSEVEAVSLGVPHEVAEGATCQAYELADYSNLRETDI
Experiment: Radioligand-receptor binding assay, human recombinant α1D-adrenoceptor, [3H]prazosin
pKi: −log10 of the molar value.

>  <Compound>
CCOc1ccccc1OCCN[C@H](C)Cc1ccc(O)c(S(N)(=O)=O)c1 [Formula I]

>  <pKi>
9.97

$$$$
>  <Compound>
CCOc1ccccc1OCCN[C@@H](C)Cc1ccc(O)c(S(N)(=O)=O)c1 [(S)-isomer]

>  <pKi>
8.10

$$$$
>  <Compound>
CCOc1ccccc1OCCNC(C)Cc1ccc(O)c(S(N)(=O)=O)c1 (racemic) [Racemate]

>  <pKi>
9.67

$$$$
